assay_system: STK32C (human) (UniProt Q86UX6)
Sequence (Q86UX6 whole entry, looked up): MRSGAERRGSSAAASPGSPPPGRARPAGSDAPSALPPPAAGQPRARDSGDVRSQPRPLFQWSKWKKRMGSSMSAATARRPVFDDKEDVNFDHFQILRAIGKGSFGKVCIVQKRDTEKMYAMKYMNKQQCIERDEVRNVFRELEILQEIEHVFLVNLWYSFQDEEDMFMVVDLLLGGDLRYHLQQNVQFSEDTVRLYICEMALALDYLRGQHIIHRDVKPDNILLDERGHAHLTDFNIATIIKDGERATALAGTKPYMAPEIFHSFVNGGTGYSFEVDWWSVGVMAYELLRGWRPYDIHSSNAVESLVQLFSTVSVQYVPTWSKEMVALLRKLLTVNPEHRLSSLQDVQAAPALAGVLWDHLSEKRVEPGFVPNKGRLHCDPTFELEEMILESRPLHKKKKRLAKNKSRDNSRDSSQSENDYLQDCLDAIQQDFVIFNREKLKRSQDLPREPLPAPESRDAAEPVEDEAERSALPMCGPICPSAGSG
procedure_summary: KINOMEscan competition binding
assay_setup: compound 10.0 µM
test_readout: kinase still bound, per cent of control (%)
# unit: % | format: bare number

Endpoint output: kinase still bound, per cent of control of C[C@@H](Oc1cc(-n2cnc3ccc(CN4CCN(C)CC4)cc32)sc1C(N)=O)c1ccccc1C(F)(F)F . Value?
100

Endpoint output: kinase still bound, per cent of control of Cc1ccc2nc(NCCN)c3ncc(C)n3c2c1 . Value?
94

Endpoint output: kinase still bound, per cent of control of CCCS(=O)(=O)Nc1ccc(F)c(C(=O)c2c[nH]c3ncc(-c4ccc(Cl)cc4)cc23)c1F . Value?
100

Endpoint output: kinase still bound, per cent of control of Cn1c(=O)n(-c2ccc(C(C)(C)C#N)cc2)c2c3cc(-c4cnc5ccccc5c4)ccc3ncc21 . Value?
100

Endpoint output: kinase still bound, per cent of control of O=C(O)c1ccc(Nc2ncc3c(n2)-c2ccc(Cl)cc2C(c2c(F)cccc2F)=NC3)cc1 . Value?
50

Endpoint output: kinase still bound, per cent of control of Cc1ccc(C(=O)Nc2cccc(C(F)(F)F)c2)cc1Nc1cncc(C(N)=O)c1 . Value?
100

Endpoint output: kinase still bound, per cent of control of C=CC(=O)Nc1cccc(Nc2nc(N[C@H]3CC[C@H](N(C)C)CC3)nc3c2ncn3C(C)C)c1 . Value?
98

Endpoint output: kinase still bound, per cent of control of Cc1cc([C@@H](C)Nc2ccccc2C(=O)O)c2nc(N3CCOCC3)cc(=O)n2c1 . Value?
82

Endpoint output: kinase still bound, per cent of control of O=C1Nc2ccc(I)cc2/C1=C/c1cc(Br)c(O)c(Br)c1 . Value?
98

Endpoint output: kinase still bound, per cent of control of CCC(=O)N1CCN(c2ccc(-n3c(=O)ccc4cnc5ccc(-c6cnc7ccccc7c6)cc5c43)cc2C(F)(F)F)CC1 . Value?
100

Endpoint output: kinase still bound, per cent of control of COc1cc(C(=O)NC2CCN(C)CC2)ccc1Nc1ncc2c(n1)N(C1CCCC1)CCC(=O)N2C(C)C . Value?
100

Endpoint output: kinase still bound, per cent of control of O=C(NOC[C@H](O)CO)c1ccc(F)c(F)c1Nc1ccc(I)cc1F . Value?
100

Endpoint output: kinase still bound, per cent of control of COc1cc(C(=O)NC2CCN(C)CC2)ccc1Nc1ncc2c(n1)N(C1CCCC1)C(C)CC(=O)N2C (stereo unspecified) . Value?
100

Endpoint output: kinase still bound, per cent of control of O=C(NC1CC1)c1cccc(-c2ccc3c(NC(=O)C4CC4)n[nH]c3c2)c1 . Value?
89

Endpoint output: kinase still bound, per cent of control of COc1cc(N2CCN(C)CC2)ccc1Nc1nc(N)c(C(=O)c2c(Cl)cccc2Cl)s1 . Value?
99

Endpoint output: kinase still bound, per cent of control of CN(C)C/C=C/C(=O)Nc1cccc(Nc2ncc3c(n2)N(C)c2ccccc2C(=O)N3C)c1 . Value?
93

====

assay_system: MAP3K11 (human) (UniProt Q16584)
Sequence (Q16584 whole entry, looked up): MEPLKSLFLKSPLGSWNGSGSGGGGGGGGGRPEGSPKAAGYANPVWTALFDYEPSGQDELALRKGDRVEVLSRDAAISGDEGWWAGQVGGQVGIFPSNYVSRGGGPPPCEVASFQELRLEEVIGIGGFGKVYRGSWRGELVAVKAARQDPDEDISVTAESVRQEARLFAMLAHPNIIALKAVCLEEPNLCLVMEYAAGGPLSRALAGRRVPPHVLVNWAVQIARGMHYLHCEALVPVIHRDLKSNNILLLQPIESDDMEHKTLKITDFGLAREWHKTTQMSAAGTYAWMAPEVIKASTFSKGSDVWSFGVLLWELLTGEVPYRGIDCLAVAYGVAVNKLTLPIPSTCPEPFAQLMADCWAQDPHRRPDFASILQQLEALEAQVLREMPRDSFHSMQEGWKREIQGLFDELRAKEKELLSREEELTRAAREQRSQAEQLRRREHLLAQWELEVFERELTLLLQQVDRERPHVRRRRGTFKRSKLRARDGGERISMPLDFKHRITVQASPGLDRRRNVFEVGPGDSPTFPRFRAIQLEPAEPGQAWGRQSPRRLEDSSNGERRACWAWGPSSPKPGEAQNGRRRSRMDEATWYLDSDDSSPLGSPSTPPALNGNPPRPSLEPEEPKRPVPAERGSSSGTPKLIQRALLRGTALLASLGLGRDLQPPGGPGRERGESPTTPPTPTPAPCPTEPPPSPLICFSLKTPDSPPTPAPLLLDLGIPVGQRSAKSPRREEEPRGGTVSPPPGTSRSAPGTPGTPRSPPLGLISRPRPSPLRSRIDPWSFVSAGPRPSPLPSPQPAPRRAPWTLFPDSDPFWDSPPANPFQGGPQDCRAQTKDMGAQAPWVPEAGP
procedure_summary: KINOMEscan competition binding
assay_setup: compound 10.0 µM
Provide the reported kinase still bound, per cent of control of each item.
# unit: % | format: bare number

Endpoint output: kinase still bound, per cent of control of Cc1ccc2nc(NCCN)c3ncc(C)n3c2c1 . Value?
87

Endpoint output: kinase still bound, per cent of control of Cc1ccc(C(=O)Nc2cccc(C(F)(F)F)c2)cc1Nc1cncc(C(N)=O)c1 . Value?
100

Endpoint output: kinase still bound, per cent of control of C=CC(=O)Nc1cccc(Nc2nc(N[C@H]3CC[C@H](N(C)C)CC3)nc3c2ncn3C(C)C)c1 . Value?
24

Endpoint output: kinase still bound, per cent of control of Cn1c(=O)n(-c2ccc(C(C)(C)C#N)cc2)c2c3cc(-c4cnc5ccccc5c4)ccc3ncc21 . Value?
100

Endpoint output: kinase still bound, per cent of control of O=C(O)c1ccc(Nc2ncc3c(n2)-c2ccc(Cl)cc2C(c2c(F)cccc2F)=NC3)cc1 . Value?
84

Endpoint output: kinase still bound, per cent of control of CN(C)C/C=C/C(=O)Nc1cccc(Nc2ncc3c(n2)N(C)c2ccccc2C(=O)N3C)c1 . Value?
100

Endpoint output: kinase still bound, per cent of control of CC[C@@H]1C(=O)N(C)c2cnc(Nc3ccc(C(=O)NC4CCN(C)CC4)cc3OC)nc2N1C1CCCC1 . Value?
100
